Reference source: paper PMC5681660

Items are presented alongside their recorded Ranking score.
Target: human NTCP (Homo sapiens, UniProt Q14973)
Sequence (Q14973 whole entry): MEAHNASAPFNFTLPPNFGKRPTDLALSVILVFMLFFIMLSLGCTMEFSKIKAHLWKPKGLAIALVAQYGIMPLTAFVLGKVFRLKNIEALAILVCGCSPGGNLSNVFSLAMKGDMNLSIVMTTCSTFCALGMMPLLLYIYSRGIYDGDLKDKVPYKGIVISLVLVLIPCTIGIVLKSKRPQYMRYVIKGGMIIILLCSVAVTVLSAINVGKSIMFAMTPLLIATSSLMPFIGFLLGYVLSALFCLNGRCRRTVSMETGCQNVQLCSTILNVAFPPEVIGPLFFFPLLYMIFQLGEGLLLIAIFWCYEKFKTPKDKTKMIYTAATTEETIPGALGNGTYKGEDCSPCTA
Assay: Screening taurocholate uptake assay (96-well, [14C]taurocholate, 10 µM drug)
Conditions: combined ranking of functional and binding screening assays

Example entries and their recorded answers appear below.
CCOC(=O)[N-]c1cn(N2CCOCC2)n[o+]1 [Molsidomine]: 467.403
CC(=O)NC1CCSC1=O (racemic) [N-Acetyl-DL-homocysteine Thiolactone]: 563.625

Name the recorded Ranking score of the compound listed here: COC1=C(OC)C(=O)C(CCCCCCCCCCO)=C(C)C1=O [Idebenone]
488.87

====

Items are presented alongside their recorded Ranking score.
Target: human NTCP (Homo sapiens)
Experiment: Screening taurocholate uptake assay (96-well, [14C]taurocholate, 10 µM drug)
Settings: ranking over the functional and the binding screening assay
Counter-ions that a name gives are not always drawn.

Example entries and their recorded answers appear below.
CN(C)CCn1nnnc1SCC1=C(C(=O)O)N2C(=O)[C@@H](NC(=O)Cc3csc(N)n3)[C@H]2SC1 [Cefotiam hydrochloride]: 197.995
CCCCC(CC)CNC(=N)NC(=N)NCCCCCCNC(=N)NC(=N)NCC(CC)CCCC (centres unmarked) [Alexidine dihydrochloride]: 6.481
COc1cc(N)c(Cl)cc1C(=O)NC1CCN(CCCOc2ccc(F)cc2)CC1OC (centres unmarked) [Cisapride]: 235.1
Oc1ccc(C2CNCCc3c2cc(O)c(O)c3Cl)cc1 (centres unmarked): 222.621
c1ccc(C2CN3CCSC3=N2)cc1 (centres unmarked) [Tetramisole hydrochloride]: 250.531

# input for lookup
Name the value of Ranking score reported for CC1=C(CC(=O)O)c2cc(F)ccc2/C1=C\c1ccc([S+](C)[O-])cc1 (centres unmarked) when tested on human NTCP (Homo sapiens).
109.727

====

Target: human NTCP (Homo sapiens)
Test: Screening fluorescent competitive Myrcludex B-FITC binding assay (96-well, 10 µM drug)
Conditions: screen, 10 µM drug, Myrcludex B-FITC binding
Where a name gives a salt, the structure may show the parent alone.
measured metric: B-score binding assay
Give your answer as a number; write no unit.

Example entries and their recorded answers appear below.
CN(N=O)C(=O)N[C@H]1C(O)O[C@H](CO)[C@@H](O)[C@@H]1O (mixture of isomers): -0.654
CS(=O)(=O)Nc1ccc([N+](=O)[O-])cc1Oc1ccccc1 [Nimesulide]: 0.652

Name the recorded B-score binding assay of the compound listed here: "CCC1=C[C@@H]2CN3CCc4c([nH]c5ccccc45)[C@@](C(=O)OC)(C2)[C@@H]13"
-0.047

Name the recorded B-score binding assay of the compound listed here: "COc1nc(C)nc(Cl)c1N=C1NCCN1"
-0.494

Name the recorded B-score binding assay of the compound listed here: CN[C@@H]1[C@@H](O[C@H]2O[C@H](CO)[C@@H](N)[C@H](O)[C@H]2O)OC2C[C@@H](N)[C@@H](O[C@H]3[C@H](O)[C@@H](O)[C@H](N)C[C@@H]3N)OC2[C@@H]1O (some centres unmarked)
-0.447

Name the recorded B-score binding assay of the compound listed here: "CC(=O)[C@H]1CC[C@H]2[C@@H]3CC=C4C[C@@H](O)CC[C@]4(C)[C@H]3CC[C@]12C"
0.35

Name the recorded B-score binding assay of the compound listed here: "CC1(C)[C@H](C(=O)O)N2C(=O)C[C@H]2S1(=O)=O"
-1.629

Name the recorded B-score binding assay of the compound listed here: "O=C(Oc1cccc2cccnc12)c1ccccc1"
-0.876

Name the recorded B-score binding assay of the compound listed here: "CC(=O)N[C@@H](CC(=O)N[C@@H](CCC(=O)O)C(=O)O)C(=O)O"
-0.793

Name the recorded B-score binding assay of the compound listed here: CC(C)NCC(O)c1ccc2ccccc2c1.Cl (centres unmarked) [Pronethalol hydrochloride]
0.008

Name the recorded B-score binding assay of the compound listed here: Cc1cc(C(C)(C)C)cc(C)c1CC1=NCCN1 [Xylometazoline hydrochloride]
-1.17

Name the recorded B-score binding assay of the compound listed here: CC(C)COCC(CN(Cc1ccccc1)c1ccccc1)N1CCCC1 (centres unmarked) [Bepridil hydrochloride]
-1.626

Name the recorded B-score binding assay of the compound listed here: "OCCN(CCO)c1nc(N2CCCCC2)c2nc(N(CCO)CCO)nc(N3CCCCC3)c2n1"
-0.011

Name the recorded B-score binding assay of the compound listed here: NNCCc1ccccc1 [Phenelzine sulfate]
-0.533
